Recorded IC50 for the following molecules
Target: human JAK1 kinase domain (JH1) (Homo sapiens, UniProt P23458)
Construct: recombinantly generated catalytic kinase (also known as JH1) domain of human JAK1, JAK2, JAK3 and TYK2
Sequence (P23458 875-1153 limits assumed): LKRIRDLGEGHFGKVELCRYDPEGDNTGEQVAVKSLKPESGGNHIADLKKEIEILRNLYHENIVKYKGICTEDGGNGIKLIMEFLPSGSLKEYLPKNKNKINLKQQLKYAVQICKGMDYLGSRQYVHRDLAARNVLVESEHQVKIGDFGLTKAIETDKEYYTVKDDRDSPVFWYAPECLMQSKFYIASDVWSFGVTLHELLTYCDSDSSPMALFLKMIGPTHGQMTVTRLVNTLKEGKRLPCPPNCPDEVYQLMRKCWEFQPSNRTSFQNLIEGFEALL
Assay: JH1 biochemical assay for JAK1 (ADP-Glo kinase assay, recombinant JH1 catalytic domain, JAK3-342 peptide, 35 μM ATP)
Settings: JH1 kinase domain, ADP-Glo
Where a name gives a salt, the structure may show the parent alone.

Here is how some molecules turned out for IC50.
>  <molecule>
C[C@H]1CN(c2ccnn3cc(-c4cnn(C)c4)cc23)C(=O)[C@@]1(C#N)C1CC1

>  <experimental value>
> 10000 nM

$$$$
>  <molecule>
C[C@@H]1CN(c2ccnn3cc(-c4cn5c(n4)CCC5)cc23)C(=O)[C@]1(C#N)C1CC1 [Example 106, trifluoroacetate]

>  <experimental value>
100 to 1000 nM

$$$$
>  <molecule>
Cn1cc(-c2cc3c(N4CC[C@@](C#N)(C5CC5)C4=O)ccnn3c2)cn1

>  <experimental value>
100 to 1000 nM

$$$$
>  <molecule>
CC(=O)Nc1cccc(-c2cc3c(N4C[C@@H](C)[C@@](C#N)(C5CC5)C4=O)ccnn3c2)n1 [Example 131, trifluoroacetate]

>  <experimental value>
< 100 nM

$$$$
>  <molecule>
C[C@@H]1CN(c2ccnn3cc(-c4ccc(C#N)nc4)cc23)C(=O)[C@]1(C#N)C1CC1 [Example 86, trifluoroacetate]

>  <experimental value>
100 to 1000 nM

$$$$
>  <molecule>
Cc1cnn2cc(-c3cnn(C)c3)nc(N3C[C@@H](C)[C@@](C#N)(C4CC4)C3=O)c12

>  <experimental value>
1000 to 5000 nM

$$$$

Dear colleague, I am looking for the recorded IC50 of the following molecule: [2H]C([2H])([2H])n1cc(-c2cc3c(N4C[C@@H](C)[C@@](C#N)(C5CC5)C4=O)ccnn3c2)cn1
< 100 nM

Dear colleague, I am looking for the recorded IC50 of the following molecule: COC[C@@]1(C#N)CCN(c2ccnn3cc(-c4cnn(C)c4)cc23)C1=O (single isomer, unassigned)
1000 to 5000 nM

----------
Target: human JAK1 kinase domain (JH1) (Homo sapiens, UniProt P23458)
Construct: recombinantly generated catalytic kinase (also known as JH1) domain of human JAK1, JAK2, JAK3 and TYK2
Assay: JH1 biochemical assay for JAK1 (ADP-Glo kinase assay, recombinant JH1 catalytic domain, JAK3-342 peptide, 35 μM ATP)
Details: JH1 kinase domain, ADP-Glo
Counter-ions that a name gives are not always drawn.
parameter measured: IC50

>  <compound>
Cc1c(-c2cn3nccc3c(N3C[C@@H](C)[C@@](C#N)(C4CC4)C3=O)n2)cnn1C [Example 199]

>  <parameter measured>
IC50

>  <experimental value>
< 100 nM

$$$$
>  <compound>
C[C@@H]1CN(c2ccnn3cc(-c4cn(C)nn4)cc23)C(=O)[C@]1(C#N)C1CC1 [Example 112, trifluoroacetate]

>  <parameter measured>
IC50

>  <experimental value>
100 to 1000 nM

$$$$
>  <compound>
COc1cccc(-c2cc3c(N4C[C@@H](C)[C@@](C#N)(C5CC5)C4=O)ccnn3c2)n1 [Example 143, trifluoroacetate]

>  <parameter measured>
IC50

>  <experimental value>
100 to 1000 nM

$$$$
>  <compound>
Cn1cc(-c2cc3c(N4CC[C@@](C#N)(C5COC5)C4=O)ccnn3c2)cn1 (single isomer, unassigned) [Example 45]

>  <parameter measured>
IC50

>  <experimental value>
> 10000 nM

$$$$
>  <compound>
C[C@@H]1CN(c2ccnn3c(F)c(-c4cnn(C)c4)cc23)C(=O)[C@]1(C#N)C1CC1 [Example 28]

>  <parameter measured>
IC50

>  <experimental value>
1000 to 5000 nM

$$$$

Dear colleague, I am looking for the recorded IC50 of the following compound: C[C@@H]1CN(c2nc(-c3cnn(C(F)F)c3)cn3ncc(F)c23)C(=O)[C@]1(C#N)C1CC1 [Example 189]
< 100 nM

Dear colleague, I am looking for the recorded IC50 of the following compound: COc1ccnc(-c2cc3c(N4C[C@@H](C)[C@@](C#N)(C5CC5)C4=O)ccnn3c2)n1 [Example 122, trifluoroacetate]
5000 to 10000 nM

Dear colleague, I am looking for the recorded IC50 of the following compound: C[C@@H]1CN(c2ccnn3cc(-c4cnn([C@@H]5CC5(F)F)c4)cc23)C(=O)[C@]1(C#N)C1CC1 (single isomer, unassigned) [Example 155]
< 100 nM

Dear colleague, I am looking for the recorded IC50 of the following compound: Cn1cc(-c2cc3c(N4CCC(C#N)C4=O)ccnn3c2)cn1 (centres unmarked) [Example 7]
> 10000 nM

Dear colleague, I am looking for the recorded IC50 of the following compound: Cc1ccc2nc(-c3cc4c(N5C[C@@H](C)[C@@](C#N)(C6CC6)C5=O)ccnn4c3)nn2c1 [Example 109, trifluoroacetate]
1000 to 5000 nM

Dear colleague, I am looking for the recorded IC50 of the following compound: COc1cncc(-c2cc3c(N4C[C@@H](C)[C@@](C#N)(C5CC5)C4=O)ccnn3c2)c1 [Example 82]
> 10000 nM

Dear colleague, I am looking for the recorded IC50 of the following compound: C[C@@H]1CN(c2ccnn3cc(-c4ccnn4C)cc23)C(=O)[C@]1(C#N)C1CC1 [Example 49]
100 to 1000 nM

Dear colleague, I am looking for the recorded IC50 of the following compound: C[C@@H]1CN(c2ccnn3cc(-c4ccc(N(C)C)nc4)cc23)C(=O)[C@]1(C#N)C1CC1 [Example 62]
100 to 1000 nM

Dear colleague, I am looking for the recorded IC50 of the following compound: C[C@@H]1CN(c2ccnn3cc(-c4ccc(S(C)(=O)=O)nc4)cc23)C(=O)[C@]1(C#N)C1CC1 [Example 52]
100 to 1000 nM

Dear colleague, I am looking for the recorded IC50 of the following compound: CCn1cc(-c2cn3ncc(F)c3c(N3C[C@@H](C)[C@@](C#N)(C4CC4)C3=O)n2)cn1 [Example 188]
< 100 nM

Dear colleague, I am looking for the recorded IC50 of the following compound: Cc1ccc(-c2cc3c(N4C[C@@H](C)[C@@](C#N)(C5CC5)C4=O)ccnn3c2)cn1 [Example 67]
100 to 1000 nM

Dear colleague, I am looking for the recorded IC50 of the following compound: COc1cc(-c2cc3c(N4CC[C@@](C#N)(C5CC5)C4=O)ccnc3[nH]2)ccn1 [Example 3]
< 100 nM

Dear colleague, I am looking for the recorded IC50 of the following compound: C[C@@H]1CN(c2ccnn3cc(-c4cccnc4OC(F)F)cc23)C(=O)[C@]1(C#N)C1CC1 [Example 50]
1000 to 5000 nM

Dear colleague, I am looking for the recorded IC50 of the following compound: C[C@@H]1CN(c2ccnn3cc(-c4ccc(C(F)(F)F)nc4)cc23)C(=O)[C@]1(C#N)C1CC1 [Example 74]
100 to 1000 nM

Dear colleague, I am looking for the recorded IC50 of the following compound: Cc1nn(C)c(C)c1-c1cn2nccc2c(N2C[C@@H](C)[C@@](C#N)(C3CC3)C2=O)n1 [Example 200]
100 to 1000 nM

Dear colleague, I am looking for the recorded IC50 of the following compound: Cn1cc(-c2cc3c(N4CC[C@](C)(C#N)C4=O)ccnn3c2)cn1 (single isomer, unassigned) [Example 39]
> 10000 nM

Dear colleague, I am looking for the recorded IC50 of the following compound: C[C@@H]1CN(c2ccnn3cc(-c4cc(CO)ccn4)cc23)C(=O)[C@]1(C#N)C1CC1 [Example 148, trifluoroacetate]
100 to 1000 nM

Dear colleague, I am looking for the recorded IC50 of the following compound: Cc1ncc(-c2cc3c(N4C[C@@H](C)[C@@](C#N)(C5CC5)C4=O)ccnn3c2)cn1 [Example 80]
1000 to 5000 nM
